Where do the numbers come from? From PubChem BioAssay.

# system-name: Steroidogenic factor 1 (Homo sapiens)
# assay-overview: SF1 (NR5A1) inverse agonists, counter-screen for LRH-1 inverse agonist project, cell-based, luminescence, high throughput (AID 651614);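 also: cells cotransfected with StAR promoter reporter and SF1 expression vector; 0% = vehicle on cells with receptor and 100% = vehicle on cells lacking receptor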
# condition: cell-based SF1 luciferase reporter, at 3.6 µM, stronger effect = higher value
Listed here: items and their measured inhibition.
Write the value in % as a bare number.

Sample answers from the record:
COc1ccc(NC(=O)CN2C(=O)C(C)SC(C)C2=O)c(OC)c1 (stereo not drawn)    49
COc1cccc(Cn2c(NCc3cccnc3)nc3c2c(=O)n(C)c(=O)n3C)c1    50.3

Query block: Any idea what its inhibition is? The molecule is "c1ccc(-c2cccc(-c3ccccn3)n2)nc1"
Result block: 71.8

---

# system-name: Nuclear receptor subfamily 5 group A member 2 (Homo sapiens)
# assay-overview: LRH-1 (NR5A2) inverse agonists, retest, confirmation, cell-based, luminescence (AID 651613);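 also: HEK293T cells co-transfected with LRH-1 and StAR promoter luciferase reporter; 0% = vehicle wells and 100% = parental cells lacking receptor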
# condition: cell-based LRH-1 luciferase reporter, inverse agonism; at 3.6 µM; stronger effect = higher value
The source made the active and inactive calls. Rule as the data show it: active = inhibition above about 42%; inactive = the rest.
Listed here: items and their measured inhibition.

COc1ccc(C2=NS(=O)(=O)N(C)C(C(=O)N3CCc4ccccc4C3)=C2)cc1OC    43% (active)

Query block: Any idea what its inhibition is? The molecule is CC1CC(C)C(=NNC(N)=O)C(C(O)CC2CCC(=O)NC2=O)C1 (centres undefined)
Result block: 76.7% (active)

Query block: Ok, now "Cc1cccn2c(=O)c3cc(C(=O)NCCN4CCOCC4)c(=N)n(Cc4cccnc4)c3nc12"
Result block: 57.8% (active)

Query block: Ok, now CC1CCc2c(sc(NC(=O)CSc3ncn[nH]3)c2C#N)C1 (centres undefined)
Result block: 56.7% (active)

Query block: Ok, now Cc1ccc(NC(=O)COC(=O)C(NS(=O)(=O)c2ccc(Cl)cc2)C(C)O)cc1C (centres undefined)
Result block: 61.8% (active)

Query block: Ok, now "COc1ccc(NC(=O)Cn2nnc(C(=O)Nc3ccccc3C)c2N)cc1"
Result block: 41.4% (active)

Query block: Ok, now "C#CCSc1nsc(SCC#C)c1C#N"
Result block: 53.4% (active)

Query block: Ok, now "CCS(=O)(=O)N1Cc2cc(C(=O)NCC3CC3)nc(-c3cccc(-c4cccnc4)c3)c2[C@@H]1CCO"
Result block: 47.6% (active)

Query block: Ok, now "COc1ccc(NC(=O)COC(=O)c2c(-c3ccccc3)noc2C)cc1"
Result block: 63% (active)

Query block: Ok, now "COc1ccc(NC(=O)c2cc(-c3cc(C)cc(F)c3)n[nH]2)cc1OC"
Result block: 55.6% (active)

Query block: Ok, now "O=C(CSc1nc2cccc(F)c2c(=O)n1-c1ccccc1)Nc1ccc2c(c1)CCC2"
Result block: 57.3% (active)

Query block: Ok, now "COc1ccc(C[C@H](N)C(=O)N[C@H]2[C@@H](O)[C@H](n3cnc4c(N(C)C)ncnc43)O[C@@H]2CO)cc1"
Result block: 111% (active)

Query block: Ok, now "CC1(C)Cc2ccccc2/C(=C/C(=O)c2ccccc2)N1"
Result block: 39% (inactive)

---

# Tested on: transactivating tegument protein VP16 (Human herpesvirus 1), Gal4-VP16 luciferase reporter
# assay-overview: VP16 transactivation inhibitors, counter-screen for SRC3 inhibitor project, cell-based, luminescence, high throughput (AID 588794)
# condition: mammalian cells, VP16-driven luciferase reporter luminescence; at 3.6 µM; stronger effect = higher value
Listed here: items and their measured inhibition.
Write the value in % as a bare number.

O=C(Nc1sc2c(c1C(=O)O)CCCC2)c1ccc(F)cc1    27.5

Let us examine a further case.
Query block: Any idea what its inhibition is? The molecule is "Cc1nc2c(-c3ccc(F)cc3)cnn2c(N)c1-c1ccccc1"
Result block: 38.8
